Assay: in vitro
Conditions: rat, gh3-tre-luc cells, AC50 (uM) modified / 1000, Tox21_110001=Tox21_202927; viability, 1 nM T3 present, 24 h
recorded-endpoint: CC50 at 24 h

> print(dat)
                    molecule  reported
1  CCCCON=O [N-Butylnitrite]   > 90 µM

---

Experiment: in vitro
Conditions: rat, gh3-tre-luc cells, AC50 (uM) modified / 1000, Tox21_110001=Tox21_112022; viability, 1 nM T3 present, 24 h
recorded-endpoint: CC50 at 24 h

> print(dat)
                                   molecule  reported
1  C[C@@H](CO)NC(=O)[C@@H]1C=C2c3cccc4[nH]cc(c34)C[C@H]2N(C)C1 [Ergonovine]   > 50 µM

---

System: GH3-TRE-Luc cell line
Settings: read-out: AC50 (uM) modified / 1000; Tox21_110001=Tox21_202751; viability, 1 nM T3 present, 24 h
recorded-endpoint: CC50 (µM)

> print(dat)
                            molecule  reported
1  O=C(O)CS [Ammonium thioglycolate]      58.7

---

Test: in vitro
Conditions: rat, gh3-tre-luc cells, AC50 (uM) modified / 1000, Tox21_110001=Tox21_302286; viability, 1 nM T3 present, 24 h
recorded-endpoint: CC50 at 24 h

> print(dat)
                                   molecule  reported
1  C[C@]12CCC(=O)C(O)=C1CC[C@@H]1[C@@H]2CC[C@]2(C)C(=O)CC[C@@H]12 [4-Hydroxyandrostenedione]   > 90 µM

---

Experiment: in vitro
Settings: rat, gh3-tre-luc cells, AC50 (uM) modified / 1000
Counter-ions that a name gives are not always drawn.
Known CC50 at 24 h of a selection of compounds

compound	CC50 at 24 h
CC(C)(C)c1ccc(C(=O)O)cc1 [4-tert-Butylbenzoic acid]	> 90 µM
CCCCCCCCCCCCCC[P+](CCCC)(CCCC)CCCC [Tributyltetradecylphosphonium chloride]	2.96 µM
CC(C)[C@@H]1CC[C@@H](C)CC1=O	> 90 µM
CN(Cc1ccc(C(C)(C)C)cc1)Cc1cccc2ccccc12 [Butenafine]	27.3 µM
C=CC(=C)C [Isoprene]	> 90 µM
CCCCCCCCCO [1-Nonanol]	> 90 µM
C=CC(C)(CCC=C(C)C)OC(=O)CC(C)C (centres unmarked) [Linalyl isovalerate]	> 90 µM
O=[N+]([O-])c1ccccc1CCO [2-(2-Nitrophenyl)ethanol]	> 90 µM
CCC(C)(CCCC(C)C)OC(C)=O (centres unmarked) [3,7-Dimethyloctan-3-yl acetate]	> 90 µM
Cc1ccc(C(C)(C)c2ccc(C)cc2)cc1 [2,2-Di-4-tolylpropane]	> 50 µM
C(=NC1CCCCC1)=NC1CCCCC1 [Dicyclohexylcarbodiimide]	> 90 µM
N#CS [Potassium thiocyanate]	> 90 µM
CC(=O)[C@H]1CC[C@H]2[C@@H]3C[C@H](C)C4=CC(=O)CC[C@]4(C)[C@H]3[C@@H](O)C[C@]12C [Medrysone]	> 20 µM
CCCCC(=O)O[C@]1(C(=O)CO)[C@@H](C)C[C@H]2[C@@H]3CCC4=CC(=O)C=C[C@]4(C)[C@@]3(F)[C@@H](O)C[C@@]21C [Betamethasone valerate]	77.9 µM
N#Cc1ccc(C2CCCc3cncn32)cc1 (centres unmarked) [Fadrozole hydrochloride]	> 40 µM
O=C1CC[C@@H](C(=O)N[C@H]2C[C@@H]2c2ccccc2)N1 [Rolicyprine]	> 50 µM
CC(=O)c1cc(C(C)(C)C)cc2c1CCC2(C)C	40.7 µM
Clc1cccc(-c2cc(Cl)cc(Cl)c2)c1 [Aroclor 1016]	> 90 µM
C=CCOCC(O)CCl (centres unmarked) [Allyl 3-chloro-2-hydroxypropyl ether]	> 90 µM
CCn1cc(C(=O)O)c(=O)c2ccc(C)nc21 [Nalidixic acid]	> 90 µM
